B1: tRNA (parent)
chain: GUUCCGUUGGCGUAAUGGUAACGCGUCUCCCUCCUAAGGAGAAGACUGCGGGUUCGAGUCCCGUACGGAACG

- Variants of: B1
- Experimental Protocol: yeast fitness relative to wild type (ratio to wild type); higher = fitter; tRNA-Arg(CCU), competitive growth, 37 C, YPD
Fewer inactive variants are shown than the library holds.
Experimental Readout: yeast fitness

A43U U59A :: 0.807
U13C A45U :: 0.929
C4U U16G A43U :: 1.13
G12C C24U C55U G68C :: 0.55
C27A C60G U64C :: 0.779
U26C U35C A37G :: 0.528
C11G G51C :: 0.58
A42G A57U :: 0.714
A15G A69C :: 0.999
A42G C46U :: 0.974
C30U U47G :: 0.588
C4G G6A U47A :: 0.61
U16G C61U :: 0.75
